Origin of measurements: paper PMC11311138

A short record of IC50 observed with UniProt:O42275 follows.
recorded-endpoint: IC50

> print(dat)
                                   compound     system.name  endpoint.result
1  Cn1nc(Cl)c2c3sc(NC(=O)Cn4c5ccccc5c5ccccc54)nc3ccc21 [TI58c]  UniProt:O42275          > 50 µM
2                   CCn1ncc2ccc3nc(N)sc3c21  UniProt:O42275          > 50 µM
3                    Cn1ncc2ccc3nc(N)sc3c21  UniProt:O42275          > 50 µM
4           CCn1ncc2c3sc(NC(=O)CCl)nc3ccc21  UniProt:O42275          13.2 µM
5  Cn1nc(Cl)c2c3sc(NC(=O)CN=[N+]=[N-])nc3ccc21  UniProt:O42275          2.26 µM
6            Cn1ncc2c3sc(NC(=O)CCl)nc3ccc21  UniProt:O42275          14.3 µM
7                    Cn1ncc2c3sc(N)nc3ccc21  UniProt:O42275          > 50 µM
8   Cn1ncc2c3sc(NC(=O)CN=[N+]=[N-])nc3ccc21  UniProt:O42275          > 50 µM

----------
pIC50: −log10 of the molar value.
A short record of pIC50 observed with Electrophorus electricus AChE (eeAChE) (Electrophorus electricus) follows.
Sequence (O42275 24-633): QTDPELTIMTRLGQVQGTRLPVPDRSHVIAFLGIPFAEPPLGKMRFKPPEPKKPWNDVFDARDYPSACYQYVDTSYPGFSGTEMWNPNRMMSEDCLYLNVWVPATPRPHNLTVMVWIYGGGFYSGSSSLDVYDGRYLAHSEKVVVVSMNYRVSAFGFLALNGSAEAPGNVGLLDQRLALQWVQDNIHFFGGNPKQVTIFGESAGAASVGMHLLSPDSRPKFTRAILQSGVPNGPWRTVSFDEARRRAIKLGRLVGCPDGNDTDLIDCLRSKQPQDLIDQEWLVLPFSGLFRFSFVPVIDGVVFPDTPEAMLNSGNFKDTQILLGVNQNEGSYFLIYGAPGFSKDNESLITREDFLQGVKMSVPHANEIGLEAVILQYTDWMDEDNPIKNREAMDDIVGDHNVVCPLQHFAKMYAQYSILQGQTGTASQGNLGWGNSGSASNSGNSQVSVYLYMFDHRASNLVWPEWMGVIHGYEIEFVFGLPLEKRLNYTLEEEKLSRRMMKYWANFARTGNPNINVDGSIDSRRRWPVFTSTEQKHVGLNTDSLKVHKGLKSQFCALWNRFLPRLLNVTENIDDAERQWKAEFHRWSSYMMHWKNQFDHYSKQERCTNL
recorded-endpoint: pIC50

> print(dat)
                                   molecule  endpoint.result
1  Cn1ncc2c3sc(NC(=O)Cn4cc(-c5cc(C(F)(F)F)cc(C(F)(F)F)c5)nn4)nc3ccc21 [TI45a]           < 4.30
2  Cn1nc(Cl)c2c3sc(NC(=O)Cn4cc(-c5cc(C(F)(F)F)cc(C(F)(F)F)c5)nn4)nc3ccc21 [TI45c]           < 4.30
3  CCn1ncc2c3sc(NC(=O)Cn4c5ccccc5c5ccccc54)nc3ccc21 [TI58b]           < 4.30
4        Cn1nc(Cl)c2c3sc(NC(=O)CCl)nc3ccc21           < 4.60
5  CCn1ncc2c3sc(NC(=O)CN=[N+]=[N-])nc3ccc21             6.27
6  CCn1ncc2c3sc(NC(=O)Cn4cc(-c5cc(C(F)(F)F)cc(C(F)(F)F)c5)nn4)nc3ccc21 [TI45b]             7.15
7                   CCn1ncc2c3sc(N)nc3ccc21           < 4.30
8                Cn1nc(Cl)c2c3sc(N)nc3ccc21           < 4.30
9  Cn1ncc2c3sc(NC(=O)Cn4c5ccccc5c5ccccc54)nc3ccc21 [TI58a]           < 4.30
